Data provenance is the NIST ThermoML archive (doi:10.1016/j.fluid.2018.09.024).

Assignment: determine reported activity coefficient for the given compounds.
experimental.protocol: activity coefficient (dimensionless); of the first substance listed, at infinite dilution; xn = mol fraction of the nth substance listed
condition.notes: 338.15 K; 101.33 kPa; Liquid; Chromatography; x1 = 0

The following compounds have reported results that may help.
# compound, activity coefficient
measured = [
    ("CCCCCCCCC [nonane] + CCCCCCCCCCCC[N+](C)(C)CCOc1ccccc1.N#C[N-]C#N", 7.83),
    ("C=CCCCCCCCC [1-decene] + CCCCCCCCCCCC[N+](C)(C)CCOc1ccccc1.N#C[N-]C#N", 6.67),
    ("C#CCCCCCC [1-octyne] + CCCCCCCCCCCC[N+](C)(C)CCOc1ccccc1.N#C[N-]C#N", 2.34),
    ("c1ccsc1 [thiophene] + CCCCCCCCCCCC[N+](C)(C)CCOc1ccccc1.O=S(=O)([N-]S(=O)(=O)C(F)(F)F)C(F)(F)F", 0.591),
    ("C=CCCC [1-pentene] + CCCCCCCCCCCC[N+](C)(C)CCOc1ccccc1.N#C[N-]C#N", 3.36),
    ("CCCC(=O)OC [methyl butanoate] + CCCCCCCCCCCC[N+](C)(C)CCOc1ccccc1.N#C[N-]C#N", 1.34),
]

Please find the next compound below.
**Query** Look up activity coefficient for this compound: CCCCO [butan-1-ol] + CCCCCCCCCCCC[N+](C)(C)CCOc1ccccc1.O=S(=O)([N-]S(=O)(=O)C(F)(F)F)C(F)(F)F
**Result** 1.28

====

Assignment: determine reported activity coefficient for the given compounds.
experimental.protocol: activity coefficient (dimensionless); of the first substance listed, at infinite dilution; xn = mol fraction of the nth substance listed
condition.notes: 358.15 K; 101.33 kPa; Liquid; Chromatography; x1 = 0
Give bare numbers.

The following compounds have reported results that may help.
# compound, val
data = [
    ("C=CCCCC [hex-1-ene] + CCCCCCCCCCCC[N+](C)(C)CCOc1ccccc1.N#C[N-]C#N", 3.84),
    ("CCC(C)(C)OC [2-methoxy-2-methylbutane] + CCCCCCCCCCCC[N+](C)(C)CCOc1ccccc1.O=S(=O)([N-]S(=O)(=O)C(F)(F)F)C(F)(F)F", 1.5),
    ("COC(C)(C)C [2-methoxy-2-methylpropane] + CCCCCCCCCCCC[N+](C)(C)CCOc1ccccc1.O=S(=O)([N-]S(=O)(=O)C(F)(F)F)C(F)(F)F", 1.27),
    ("CCC(=O)OC [methyl propanoate] + CCCCCCCCCCCC[N+](C)(C)CCOc1ccccc1.N#C[N-]C#N", 1.22),
    ("CCCCCO [pentan-1-ol] + CCCCCCCCCCCC[N+](C)(C)CCOc1ccccc1.O=S(=O)([N-]S(=O)(=O)C(F)(F)F)C(F)(F)F", 1.22),
]

Below are 2 compounds. Give each one its activity coefficient.
1. CCC[N+](=O)[O-] [1-nitropropane] + CCCCCCCCCCCC[N+](C)(C)CCOc1ccccc1.N#C[N-]C#N
2. CCC(C)CC [3-methylpentane] + CCCCCCCCCCCC[N+](C)(C)CCOc1ccccc1.O=S(=O)([N-]S(=O)(=O)C(F)(F)F)C(F)(F)F

**Result**
1: 0.886; 2: 3.01

====

experimental.protocol: activity coefficient (dimensionless); of the first substance listed, at infinite dilution; xn = mol fraction of the nth substance listed
condition.notes: 358.15 K; 101.33 kPa; Liquid; Chromatography; x1 = 0
Would you please tag the item yes when its activity coefficient is 2 or above, and no when it is below?

Some solved entries appear below for comparison.
# compound, class.name
records = [
    ("CCCC=O [butanal] + CCCCCCCCCCCC[N+](C)(C)CCOc1ccccc1.N#C[N-]C#N", "no"),
    ("C=CCCCCC [1-heptene] + CCCCCCCCCCCC[N+](C)(C)CCOc1ccccc1.O=S(=O)([N-]S(=O)(=O)C(F)(F)F)C(F)(F)F", "yes"),
    ("C1CCCCCC1 [cycloheptane] + CCCCCCCCCCCC[N+](C)(C)CCOc1ccccc1.O=S(=O)([N-]S(=O)(=O)C(F)(F)F)C(F)(F)F", "yes"),
    ("CCCC(C)=O [pentan-2-one] + CCCCCCCCCCCC[N+](C)(C)CCOc1ccccc1.O=S(=O)([N-]S(=O)(=O)C(F)(F)F)C(F)(F)F", "no"),
    ("CCOC(C)(C)C [2-ethoxy-2-methylpropane] + CCCCCCCCCCCC[N+](C)(C)CCOc1ccccc1.O=S(=O)([N-]S(=O)(=O)C(F)(F)F)C(F)(F)F", "yes"),
]

Here's the next entry for you.
**Query** Decide: is the reported value of activity coefficient for CCCCCCC [heptane] + CCCCCCCCCCCC[N+](C)(C)CCOc1ccccc1.N#C[N-]C#N equal to or greater than 2?
**Result** yes
